Below is a list of entries, each paired with its recorded Sterilized value.
Species on record: Mus musculus
Assay: Percentage of mice with complete eradication of candida in kidneys; further: test concentration or dose not given here
Assay type: functional, Kidney
Answer with a number only, understood to be in %.

compound	unit-descriptor	experimental-value
CCC(C)CC(C)CCCCCCCCC(=O)NC1C[C@@H](O)[C@@H](O)NC(=O)C2CN(C[C@@H]2O)C(=O)[C@H]([C@H](O)CCNC(=O)[C@@H](N)CN)NC(=O)[C@H]([C@H](O)[C@@H](O)c2ccc(O)cc2)NC(=O)C2C[C@@H](O)CN2C(=O)[C@H]([C@@H](C)O)NC1=O (some centres not stated)	%	100

Here is the next item to consider.
Enquiry: Entry under review: CCC(C)CC(C)CCCCCCCCC(=O)NC1C[C@@H](O)[C@@H](O)NC(=O)C2CN(C[C@@H]2O)C(=O)[C@H]([C@H](O)CCNC(=O)CCN)NC(=O)[C@H]([C@H](O)[C@@H](O)c2ccc(O)cc2)NC(=O)C2C[C@@H](O)CN2C(=O)[C@H]([C@@H](C)O)NC1=O (some centres not stated) . Reported Sterilized?
Return: 100

* * *

Below is a list of entries, each paired with its recorded Dose value.
Test: Acute toxicity in mice after intravenous administration
Conditions: mouse, in vivo

Reference set, count: 5
compound	experimental-value
CCC(C)CC(C)CCCCCCCCC(=O)NC1C[C@@H](O)[C@@H](O)NC(=O)C2CN(C[C@@H]2O)C(=O)[C@H]([C@H](O)CCNC(=O)CCCN)NC(=O)[C@H]([C@H](O)[C@@H](O)c2ccc(O)cc2)NC(=O)C2C[C@@H](O)CN2C(=O)[C@H]([C@@H](C)O)NC1=O (some centres not stated)	> 100 mg/kg
CCC(C)CC(C)CCCCCCCCC(=O)NC1C[C@@H](O)[C@@H](O)NC(=O)C2CN(C[C@@H]2O)C(=O)[C@H]([C@H](O)CCNC(=O)[C@@H](N)CCN)NC(=O)[C@H]([C@H](O)[C@@H](O)c2ccc(O)cc2)NC(=O)C2C[C@@H](O)CN2C(=O)[C@H]([C@@H](C)O)NC1=O (some centres not stated)	> 250 mg/kg
CCC(C)CC(C)CCCCCCCCC(=O)NC1C[C@@H](O)[C@@H](OCCN)NC(=O)C2CN(C[C@@H]2O)C(=O)[C@H]([C@H](O)CCNC(=O)[C@@H](N)CCN)NC(=O)[C@H]([C@H](O)[C@@H](O)c2ccc(O)cc2)NC(=O)C2C[C@@H](O)CN2C(=O)[C@H]([C@@H](C)O)NC1=O (some centres not stated)	100 mg/kg
CCC(C)CC(C)CCCCCCCCC(=O)NC1C[C@@H](O)[C@@H](O)NC(=O)C2CN(C[C@@H]2O)C(=O)[C@H]([C@H](O)CCNC(=O)CCCCCN)NC(=O)[C@H]([C@H](O)[C@@H](O)c2ccc(O)cc2)NC(=O)C2C[C@@H](O)CN2C(=O)[C@H]([C@@H](C)O)NC1=O (some centres not stated)	250 mg/kg
CCC(C)CC(C)CCCCCCCCC(=O)NC1C[C@@H](O)[C@@H](OCCN)NC(=O)C2CN(C[C@@H]2O)C(=O)[C@H]([C@H](O)CCNC(=O)[C@@H](N)CCCCN)NC(=O)[C@H]([C@H](O)[C@@H](O)c2ccc(O)cc2)NC(=O)C2C[C@@H](O)CN2C(=O)[C@H]([C@@H](C)O)NC1=O (some centres not stated)	60 mg/kg

Enquiry: Entry under review: CCC(C)CC(C)CCCCCCCCC(=O)NC1C[C@@H](O)[C@@H](O)NC(=O)C2CN(C[C@@H]2O)C(=O)[C@H]([C@H](O)CCNC(=O)[C@@H](N)CCCCN)NC(=O)[C@H]([C@H](O)[C@@H](O)c2ccc(O)cc2)NC(=O)C2C[C@@H](O)CN2C(=O)[C@H]([C@@H](C)O)NC1=O (some centres not stated) . Reported Dose?
Return: 150 mg/kg

Enquiry: Entry under review: CCC(C)CC(C)CCCCCCCCC(=O)NC1C[C@@H](O)[C@@H](O)NC(=O)C2CN(C[C@@H]2O)C(=O)[C@H]([C@H](O)CCNC(=O)CCCCCCN)NC(=O)[C@H]([C@H](O)[C@@H](O)c2ccc(O)cc2)NC(=O)C2C[C@@H](O)CN2C(=O)[C@H]([C@@H](C)O)NC1=O (some centres not stated) . Reported Dose?
Return: 200 mg/kg

* * *

Consider compounds characterized by their pIC50 with 1,3-beta-glucan synthase (Candida glabrata, UniProt F5BCZ9).
Sequence (F5BCZ9 whole entry): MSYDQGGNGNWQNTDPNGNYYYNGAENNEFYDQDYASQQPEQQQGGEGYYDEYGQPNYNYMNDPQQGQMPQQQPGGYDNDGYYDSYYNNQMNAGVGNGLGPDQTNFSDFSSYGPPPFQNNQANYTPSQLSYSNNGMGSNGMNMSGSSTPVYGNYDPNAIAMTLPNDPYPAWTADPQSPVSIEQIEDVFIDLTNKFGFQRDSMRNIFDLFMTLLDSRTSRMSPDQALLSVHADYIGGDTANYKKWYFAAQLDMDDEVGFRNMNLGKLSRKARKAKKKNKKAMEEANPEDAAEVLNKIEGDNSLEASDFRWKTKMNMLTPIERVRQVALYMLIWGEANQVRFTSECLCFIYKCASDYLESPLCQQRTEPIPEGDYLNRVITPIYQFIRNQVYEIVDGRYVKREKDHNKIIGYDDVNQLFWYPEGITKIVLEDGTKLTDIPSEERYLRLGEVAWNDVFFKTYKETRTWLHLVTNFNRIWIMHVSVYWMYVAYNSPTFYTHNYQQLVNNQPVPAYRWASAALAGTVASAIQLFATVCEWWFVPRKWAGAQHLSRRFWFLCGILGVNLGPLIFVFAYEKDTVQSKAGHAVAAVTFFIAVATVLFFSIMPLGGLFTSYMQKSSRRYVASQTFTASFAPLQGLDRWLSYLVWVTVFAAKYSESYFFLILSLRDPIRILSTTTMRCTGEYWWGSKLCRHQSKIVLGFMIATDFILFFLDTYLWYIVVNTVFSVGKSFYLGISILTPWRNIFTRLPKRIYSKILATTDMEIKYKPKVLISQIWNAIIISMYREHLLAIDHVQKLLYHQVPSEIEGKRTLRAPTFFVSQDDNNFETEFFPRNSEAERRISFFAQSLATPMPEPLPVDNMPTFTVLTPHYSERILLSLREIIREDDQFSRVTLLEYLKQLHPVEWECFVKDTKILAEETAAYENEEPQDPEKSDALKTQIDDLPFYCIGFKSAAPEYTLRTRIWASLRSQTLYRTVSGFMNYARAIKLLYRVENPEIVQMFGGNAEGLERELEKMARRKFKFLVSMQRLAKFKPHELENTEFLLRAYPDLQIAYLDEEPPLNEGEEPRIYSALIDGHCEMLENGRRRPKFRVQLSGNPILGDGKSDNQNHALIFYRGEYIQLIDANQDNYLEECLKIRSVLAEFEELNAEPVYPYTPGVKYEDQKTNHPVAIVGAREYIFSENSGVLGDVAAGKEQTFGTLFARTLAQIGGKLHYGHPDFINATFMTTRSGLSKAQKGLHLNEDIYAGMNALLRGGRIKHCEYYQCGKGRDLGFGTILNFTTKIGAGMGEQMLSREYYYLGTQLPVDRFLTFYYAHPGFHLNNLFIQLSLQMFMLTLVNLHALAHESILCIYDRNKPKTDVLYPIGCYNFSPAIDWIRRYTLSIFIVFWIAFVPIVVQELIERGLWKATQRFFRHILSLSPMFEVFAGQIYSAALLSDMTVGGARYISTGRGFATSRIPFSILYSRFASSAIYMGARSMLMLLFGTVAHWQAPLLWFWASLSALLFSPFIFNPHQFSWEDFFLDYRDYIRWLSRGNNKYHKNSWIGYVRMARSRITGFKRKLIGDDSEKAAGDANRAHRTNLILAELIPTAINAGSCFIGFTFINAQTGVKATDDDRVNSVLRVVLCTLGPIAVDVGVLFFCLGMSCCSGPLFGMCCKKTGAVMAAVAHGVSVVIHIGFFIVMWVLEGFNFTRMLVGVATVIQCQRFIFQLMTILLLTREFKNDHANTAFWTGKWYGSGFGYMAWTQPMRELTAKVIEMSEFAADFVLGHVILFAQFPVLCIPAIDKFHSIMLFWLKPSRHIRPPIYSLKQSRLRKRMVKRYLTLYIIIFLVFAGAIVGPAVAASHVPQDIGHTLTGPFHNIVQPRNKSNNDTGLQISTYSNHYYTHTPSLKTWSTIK
// pIC50: -log10(molar conc.)

Reference set, count: 2
compound	measured-target	pIC50
CCC(C)CC(C)CCCCCCCCC(=O)NC1C[C@@H](O)[C@@H](O)NC(=O)C2CN(C[C@@H]2O)C(=O)[C@H]([C@H](O)CCNC(=O)CCCCN)NC(=O)[C@H]([C@H](O)[C@@H](O)c2ccc(O)cc2)NC(=O)C2C[C@@H](O)CN2C(=O)[C@H]([C@@H](C)O)NC1=O (stereo partly drawn)	1,3-beta-glucan synthase (Candida glabrata, UniProt F5BCZ9)	7.70
CCC(C)CC(C)CCCCCCCCC(=O)NC1C[C@@H](O)[C@@H](OCCN)NC(=O)C2CN(C[C@@H]2O)C(=O)[C@H]([C@H](O)CCNC(=O)[C@@H](N)CCCCN)NC(=O)[C@H]([C@H](O)[C@@H](O)c2ccc(O)cc2)NC(=O)C2C[C@@H](O)CN2C(=O)[C@H]([C@@H](C)O)NC1=O (stereo partly drawn)	1,3-beta-glucan synthase (Candida glabrata, UniProt F5BCZ9)	8.52

Enquiry: Entry under review: CCC(C)CC(C)CCCCCCCCC(=O)NC1C[C@@H](O)[C@@H](OCCN)NC(=O)C2CN(C[C@@H]2O)C(=O)[C@H]([C@H](O)CCNC(=O)[C@@H](N)CN)NC(=O)[C@H]([C@H](O)[C@@H](O)c2ccc(O)cc2)NC(=O)C2C[C@@H](O)CN2C(=O)[C@H]([C@@H](C)O)NC1=O (stereo partly drawn) . Reported pIC50?
Return: 8.40

Enquiry: Entry under review: CCC(C)CC(C)CCCCCCCCC(=O)NC1C[C@@H](O)[C@@H](OCCN)NC(=O)C2CN(C[C@@H]2O)C(=O)[C@H]([C@H](O)CCNC(=O)[C@@H](N)CCCN)NC(=O)[C@H]([C@H](O)[C@@H](O)c2ccc(O)cc2)NC(=O)C2C[C@@H](O)CN2C(=O)[C@H]([C@@H](C)O)NC1=O (stereo partly drawn) . Reported pIC50?
Return: 8.82

Enquiry: Entry under review: CCC(C)CC(C)CCCCCCCCC(=O)NC1C[C@@H](O)[C@@H](O)NC(=O)C2CN(C[C@@H]2O)C(=O)[C@H]([C@H](O)CCNC(=O)CCCCCN)NC(=O)[C@H]([C@H](O)[C@@H](O)c2ccc(O)cc2)NC(=O)C2C[C@@H](O)CN2C(=O)[C@H]([C@@H](C)O)NC1=O (stereo partly drawn) . Reported pIC50?
Return: 7.05

Enquiry: Entry under review: CCC(C)CC(C)CCCCCCCCC(=O)NC1C[C@@H](O)[C@@H](O)NC(=O)C2CN(C[C@@H]2O)C(=O)[C@H]([C@H](O)CCNC(=O)[C@@H](N)CCCN)NC(=O)[C@H]([C@H](O)[C@@H](O)c2ccc(O)cc2)NC(=O)C2C[C@@H](O)CN2C(=O)[C@H]([C@@H](C)O)NC1=O (stereo partly drawn) . Reported pIC50?
Return: 8.52

Enquiry: Entry under review: CCC(C)CC(C)CCCCCCCCC(=O)NC1C[C@@H](O)[C@@H](O)NC(=O)C2CN(C[C@@H]2O)C(=O)[C@H]([C@H](O)CCNC(=O)CCN)NC(=O)[C@H]([C@H](O)[C@@H](O)c2ccc(O)cc2)NC(=O)C2C[C@@H](O)CN2C(=O)[C@H]([C@@H](C)O)NC1=O (stereo partly drawn) . Reported pIC50?
Return: 7.60

Enquiry: Entry under review: CCC(C)CC(C)CCCCCCCCC(=O)NC1C[C@@H](O)[C@@H](OCCN)NC(=O)C2CN(C[C@@H]2O)C(=O)[C@H]([C@H](O)CCN)NC(=O)[C@H]([C@H](O)[C@@H](O)c2ccc(O)cc2)NC(=O)C2C[C@@H](O)CN2C(=O)[C@H]([C@@H](C)O)NC1=O (stereo partly drawn) . Reported pIC50?
Return: 9.00

Enquiry: Entry under review: CCC(C)CC(C)CCCCCCCCC(=O)NC1C[C@@H](O)[C@@H](O)NC(=O)C2CN(C[C@@H]2O)C(=O)[C@H]([C@H](O)CCNC(C)=O)NC(=O)[C@H]([C@H](O)[C@@H](O)c2ccc(O)cc2)NC(=O)C2C[C@@H](O)CN2C(=O)[C@H]([C@@H](C)O)NC1=O (stereo partly drawn) . Reported pIC50?
Return: 6.52

Enquiry: Entry under review: CCC(C)CC(C)CCCCCCCCC(=O)NC1C[C@@H](O)[C@@H](O)NC(=O)C2CN(C[C@@H]2O)C(=O)[C@H]([C@H](O)CCNC(=O)[C@@H](N)CN)NC(=O)[C@H]([C@H](O)[C@@H](O)c2ccc(O)cc2)NC(=O)C2C[C@@H](O)CN2C(=O)[C@H]([C@@H](C)O)NC1=O (stereo partly drawn) . Reported pIC50?
Return: 7.52

Enquiry: Entry under review: CCC(C)CC(C)CCCCCCCCC(=O)NC1C[C@@H](O)[C@@H](O)NC(=O)C2CN(C[C@@H]2O)C(=O)[C@H]([C@H](O)CCNC(=O)[C@@H](N)CCCCN)NC(=O)[C@H]([C@H](O)[C@@H](O)c2ccc(O)cc2)NC(=O)C2C[C@@H](O)CN2C(=O)[C@H]([C@@H](C)O)NC1=O (stereo partly drawn) . Reported pIC50?
Return: 8.00

Enquiry: Entry under review: CCC(C)CC(C)CCCCCCCCC(=O)NC1C[C@@H](O)[C@@H](OCCN)NC(=O)C2CN(C[C@@H]2O)C(=O)[C@H]([C@H](O)CCNC(=O)[C@@H](N)CCN)NC(=O)[C@H]([C@H](O)[C@@H](O)c2ccc(O)cc2)NC(=O)C2C[C@@H](O)CN2C(=O)[C@H]([C@@H](C)O)NC1=O (stereo partly drawn) . Reported pIC50?
Return: 8.22

Enquiry: Entry under review: CCC(C)CC(C)CCCCCCCCC(=O)NC1C[C@@H](O)[C@@H](O)NC(=O)C2CN(C[C@@H]2O)C(=O)[C@H]([C@H](O)CCNC(=O)CCCN)NC(=O)[C@H]([C@H](O)[C@@H](O)c2ccc(O)cc2)NC(=O)C2C[C@@H](O)CN2C(=O)[C@H]([C@@H](C)O)NC1=O (stereo partly drawn) . Reported pIC50?
Return: 7.30
